Data credit: ChEMBL document CHEMBL1157898

# Tested on: H4
# measurement protocol: Toxicity in human H4 cells at 10 uM
# Assay type: cell-based
# test settings: h4, 10 µM
measurement kind: Activity (µM)
Field format: number, assumed µM, no unit text.

Lookup: Fill in the blank: the reported Activity of `COc1cc(/C=C2/C(=O)Nc3ccc(Cl)cc32)cc(OC)c1OC` is ____.
Found: 80

Lookup: Fill in the blank: the reported Activity of `COc1cc(OC)c(/C=C2/C(=O)Nc3ccc(Cl)cc32)c(OC)c1` is ____.
Found: 20

Lookup: Fill in the blank: the reported Activity of `CCN(CC)CCNC(=O)c1c(C)[nH]c(/C=C2\C(=O)Nc3ccc(F)cc32)c1C` is ____.
Found: 40

Lookup: Fill in the blank: the reported Activity of `COc1cc(OC)c(C=C2C(O)=Nc3ccccc32)c(OC)c1` is ____.
Found: 40

Lookup: Fill in the blank: the reported Activity of `COc1ccc(/C=C2/C(=O)Nc3ccc(Cl)cc32)c(OC)c1OC` is ____.
Found: 20

----------
# assay system: Gamma-secretase (Homo sapiens) (UniProt Q96BI3+Q9NZ42+Q8WW43+P49768+Q92542+P49810)
# measurement protocol: Inhibition of gamma secretase mediated amyloid beta 38 generation in human H4 cells at 10 uM by LPECL assay; values are per cent of control
measurement kind: residual activity (%)
Field format: number, assumed %, no unit text.

Below: 8 compounds and their reported residual activity.
O=C1Nc2ccc(Cl)cc2/C1=C\c1ccccc1F    87
COc1cc(/C=C2/C(=O)Nc3ccc(Cl)cc32)cc(OC)c1OC    54
O=C1Nc2ccc(Cl)cc2/C1=C\c1ccccc1S(=O)(=O)O    101
O=C1Nc2ccc(Cl)cc2/C1=C\c1ccccc1[N+](=O)[O-]    94
COc1cc(OC)c(C=C2C(=O)Nc3ccccc32)c(OC)c1    55
COc1ccc(/C=C2/C(=O)Nc3ccc(Cl)cc32)c(OC)c1OC    27
CCN(CC)CCNC(=O)c1c(C)[nH]c(/C=C2\C(=O)Nc3ccc(F)cc32)c1C [SUNITINIB]    26
COc1cc(OC)c(/C=C2/C(=O)Nc3ccc(Cl)cc32)c(OC)c1    35

Lookup: Item `NC(=O)Cc1ccc(/C=C2/C(=O)Nc3ccc(Cl)cc32)cc1` with Gamma-secretase (Homo sapiens) (UniProt Q96BI3+Q9NZ42+Q8WW43+P49768+Q92542+P49810) - residual activity?
Found: 99

Lookup: Item `O=C1Nc2ccc(Cl)cc2/C1=C\c1ccc2c(c1)OCO2` with Gamma-secretase (Homo sapiens) (UniProt Q96BI3+Q9NZ42+Q8WW43+P49768+Q92542+P49810) - residual activity?
Found: 86

----------
Item-by-item account of residual activity
# assay system: Gamma-secretase (Homo sapiens) (UniProt Q96BI3+Q9NZ42+Q8WW43+P49768+Q92542+P49810)
# measurement protocol: Inhibition of gamma secretase mediated amyloid beta 42 generation in human H4 cells at 10 uM by LPECL assay; values are per cent of control

O=C1Nc2ccc(Cl)cc2/C1=C\c1ccccc1[N+](=O)[O-]    83%
NC(=O)Cc1ccc(/C=C2/C(=O)Nc3ccc(Cl)cc32)cc1    97%

Lookup: Fill in the blank: the reported residual activity of `COc1cc(OC)c(/C=C2/C(=O)Nc3ccc(Cl)cc32)c(OC)c1` is ____.
Found: 65%

Lookup: Fill in the blank: the reported residual activity of `O=C1Nc2ccc(Cl)cc2/C1=C\c1ccc2c(c1)OCO2` is ____.
Found: 90%

Lookup: Fill in the blank: the reported residual activity of `O=C1Nc2ccc(Cl)cc2/C1=C\c1ccccc1S(=O)(=O)O` is ____.
Found: 88%

Lookup: Fill in the blank: the reported residual activity of `COc1ccc(/C=C2/C(=O)Nc3ccc(Cl)cc32)c(OC)c1OC` is ____.
Found: 47%

----------
# assay system: Ribosomal protein S6 kinase alpha-1 (Homo sapiens) (UniProt Q15418)
# Sequence (Q15418 whole entry): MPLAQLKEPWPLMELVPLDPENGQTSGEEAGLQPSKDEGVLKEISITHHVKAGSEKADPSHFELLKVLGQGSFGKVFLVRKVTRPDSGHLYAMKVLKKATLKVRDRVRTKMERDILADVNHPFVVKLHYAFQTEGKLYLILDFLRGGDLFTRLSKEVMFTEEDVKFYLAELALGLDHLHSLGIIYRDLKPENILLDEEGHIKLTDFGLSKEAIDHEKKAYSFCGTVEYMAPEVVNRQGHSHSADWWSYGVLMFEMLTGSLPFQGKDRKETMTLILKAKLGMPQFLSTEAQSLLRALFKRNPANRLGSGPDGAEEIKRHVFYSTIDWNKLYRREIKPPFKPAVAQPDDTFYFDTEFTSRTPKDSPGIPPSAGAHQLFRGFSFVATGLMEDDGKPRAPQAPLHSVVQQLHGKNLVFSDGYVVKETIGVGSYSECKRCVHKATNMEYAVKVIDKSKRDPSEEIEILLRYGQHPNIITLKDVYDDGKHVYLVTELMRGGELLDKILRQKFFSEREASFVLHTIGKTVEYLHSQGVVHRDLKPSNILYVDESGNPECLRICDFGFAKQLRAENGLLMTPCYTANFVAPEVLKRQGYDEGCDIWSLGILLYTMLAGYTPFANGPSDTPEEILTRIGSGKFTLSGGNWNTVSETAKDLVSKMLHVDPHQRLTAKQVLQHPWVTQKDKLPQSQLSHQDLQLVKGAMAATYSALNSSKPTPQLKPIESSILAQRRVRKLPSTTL
# measurement protocol: Inhibition of RSK1
The source made the active and inactive calls. The rule behind the calls is not given here.
measurement kind: inhibition

Below: 5 compounds and their reported inhibition.
O=C1Nc2ccc(Cl)cc2/C1=C\c1ccccc1[N+](=O)[O-]    inactive
O=C1Nc2ccc(Cl)cc2/C1=C\c1ccccc1S(=O)(=O)O    inactive
COc1cc(/C=C2/C(=O)Nc3ccc(Cl)cc32)cc(OC)c1OC    inactive
O=C1Nc2ccc(Cl)cc2/C1=C\c1ccc2c(c1)OCO2    inactive
NC(=O)Cc1ccc(/C=C2/C(=O)Nc3ccc(Cl)cc32)cc1    inactive

Lookup: Fill in the blank: the reported inhibition of `COc1ccc(/C=C2/C(=O)Nc3ccc(Cl)cc32)c(OC)c1OC` is ____.
Found: inactive

Lookup: Fill in the blank: the reported inhibition of `COc1cc(OC)c(C=C2C(=O)Nc3ccccc32)c(OC)c1` is ____.
Found: inactive

Lookup: Fill in the blank: the reported inhibition of `O=C1Nc2ccc(Cl)cc2/C1=C\c1ccccc1F` is ____.
Found: inactive

Lookup: Fill in the blank: the reported inhibition of `CCN(CC)CCNC(=O)c1c(C)[nH]c(/C=C2\C(=O)Nc3ccc(F)cc32)c1C` is ____.
Found: inactive

Lookup: Fill in the blank: the reported inhibition of `O=C1Nc2ccc(Cl)cc2/C1=C\c1cc(F)cc(F)c1` is ____.
Found: inactive

----------
# assay system: Interleukin-1 receptor-associated kinase 4 (Homo sapiens)
# measurement protocol: Inhibition of IRAK4 at 5 uM
Calls of active or inactive are those of the source. No cut-off for these calls is given here.
measurement kind: inhibition

Below: 5 molecules and their reported inhibition.
COc1cc(OC)c(/C=C2/C(=O)Nc3ccc(Cl)cc32)c(OC)c1    < 20%
O=C1Nc2ccc(Cl)cc2/C1=C\c1ccccc1[N+](=O)[O-]    inactive
NC(=O)Cc1ccc(/C=C2/C(=O)Nc3ccc(Cl)cc32)cc1    inactive
O=C1Nc2ccc(Cl)cc2/C1=C\c1cc(F)cc(F)c1    inactive
O=C1Nc2ccc(Cl)cc2/C1=C\c1ccc2c(c1)OCO2    inactive

Lookup: Fill in the blank: the reported inhibition of `O=C1Nc2ccc(Cl)cc2/C1=C\c1ccccc1F` is ____.
Found: inactive

Lookup: Fill in the blank: the reported inhibition of `COc1cc(/C=C2/C(=O)Nc3ccc(Cl)cc32)cc(OC)c1OC` is ____.
Found: inactive

Lookup: Fill in the blank: the reported inhibition of `O=C1Nc2ccc(Cl)cc2/C1=C\c1ccccc1S(=O)(=O)O` is ____.
Found: inactive

Lookup: Fill in the blank: the reported inhibition of `COc1ccc(/C=C2/C(=O)Nc3ccc(Cl)cc32)c(OC)c1OC` is ____.
Found: inactive

Lookup: Fill in the blank: the reported inhibition of `CCN(CC)CCNC(=O)c1c(C)[nH]c(/C=C2\C(=O)Nc3ccc(F)cc32)c1C` is ____.
Found: inactive

Lookup: Fill in the blank: the reported inhibition of `COc1cc(OC)c(C=C2C(=O)Nc3ccccc32)c(OC)c1` is ____.
Found: inactive

----------
Item-by-item account of residual activity
# assay system: Gamma-secretase (Homo sapiens) (UniProt Q96BI3+Q9NZ42+Q8WW43+P49768+Q92542+P49810)
# measurement protocol: Inhibition of gamma secretase mediated amyloid beta 40 generation in human H4 cells at 10 uM by LPECL assay; values are per cent of control
Field format: number, assumed %, no unit text.

COc1cc(OC)c(C=C2C(=O)Nc3ccccc32)c(OC)c1    77
NC(=O)Cc1ccc(/C=C2/C(=O)Nc3ccc(Cl)cc32)cc1    97

Lookup: Item `COc1ccc(/C=C2/C(=O)Nc3ccc(Cl)cc32)c(OC)c1OC` with Gamma-secretase (Homo sapiens) (UniProt Q96BI3+Q9NZ42+Q8WW43+P49768+Q92542+P49810) - residual activity?
Found: 46

Lookup: Item `O=C1Nc2ccc(Cl)cc2/C1=C\c1ccc2c(c1)OCO2` with Gamma-secretase (Homo sapiens) (UniProt Q96BI3+Q9NZ42+Q8WW43+P49768+Q92542+P49810) - residual activity?
Found: 93

Lookup: Item CCN(CC)CCNC(=O)c1c(C)[nH]c(/C=C2\C(=O)Nc3ccc(F)cc32)c1C [SUNITINIB] with Gamma-secretase (Homo sapiens) (UniProt Q96BI3+Q9NZ42+Q8WW43+P49768+Q92542+P49810) - residual activity?
Found: 53

Lookup: Item `O=C1Nc2ccc(Cl)cc2/C1=C\c1ccccc1S(=O)(=O)O` with Gamma-secretase (Homo sapiens) (UniProt Q96BI3+Q9NZ42+Q8WW43+P49768+Q92542+P49810) - residual activity?
Found: 96

Lookup: Item `O=C1Nc2ccc(Cl)cc2/C1=C\c1ccccc1F` with Gamma-secretase (Homo sapiens) (UniProt Q96BI3+Q9NZ42+Q8WW43+P49768+Q92542+P49810) - residual activity?
Found: 88
